target.system: GST-Co-NF-kB (Capsaspora owczarzaki, UniProt F1ARL5 200-546)
Sequence: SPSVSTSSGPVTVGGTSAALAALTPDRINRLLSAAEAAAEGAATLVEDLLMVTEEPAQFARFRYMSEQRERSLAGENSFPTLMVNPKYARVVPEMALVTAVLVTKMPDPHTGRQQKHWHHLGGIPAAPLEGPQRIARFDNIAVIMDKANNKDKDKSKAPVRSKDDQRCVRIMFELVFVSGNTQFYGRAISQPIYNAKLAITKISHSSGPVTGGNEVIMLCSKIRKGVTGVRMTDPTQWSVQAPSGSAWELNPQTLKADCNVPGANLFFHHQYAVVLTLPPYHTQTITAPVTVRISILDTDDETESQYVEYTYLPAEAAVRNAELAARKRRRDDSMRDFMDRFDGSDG
assay.procedure: protein-binding microarray (PBM); PBM: ~300 nM protein, 6 mM HEPES pH 7.8, 80 mM KCl, 0.5 mM EDTA, 0.5 mM EGTA, 6% glycerol, 35 ng/ul poly-dIdC, 1% milk, 1 h, room temperature; high values mean tight binding
condition.info: dsDNA, one strand shown
measure.name: binding signal (z-score)
Use z-score as the unit, but write only the number.

binding signal measured on "CCGATTAACATCAGGGGGTTATATGATGTTAATCGGGTCTTGATTCGCTTGACGCTGCTG" = 3.18

binding signal measured on "CCGATTAACATCAGGGGAAGTCATGATGTTAATCGGGTCTTGATTCGCTTGACGCTGCTG" = 4.69

binding signal measured on "CCGATTAACATCAAGGTGGGAATTGATGTTAATCGGGTCTTGATTCGCTTGACGCTGCTG" = 2.52

binding signal measured on "CCGATTAACATCAGAGTATCCCCTGATGTTAATCGGGTCTTGATTCGCTTGACGCTGCTG" = 4.05

###

Kindly state binding signal for each of the entries shown.
target.system: GST-Dm-Relish (Drosophila melanogaster, UniProt Q94527 99-473)
Sequence: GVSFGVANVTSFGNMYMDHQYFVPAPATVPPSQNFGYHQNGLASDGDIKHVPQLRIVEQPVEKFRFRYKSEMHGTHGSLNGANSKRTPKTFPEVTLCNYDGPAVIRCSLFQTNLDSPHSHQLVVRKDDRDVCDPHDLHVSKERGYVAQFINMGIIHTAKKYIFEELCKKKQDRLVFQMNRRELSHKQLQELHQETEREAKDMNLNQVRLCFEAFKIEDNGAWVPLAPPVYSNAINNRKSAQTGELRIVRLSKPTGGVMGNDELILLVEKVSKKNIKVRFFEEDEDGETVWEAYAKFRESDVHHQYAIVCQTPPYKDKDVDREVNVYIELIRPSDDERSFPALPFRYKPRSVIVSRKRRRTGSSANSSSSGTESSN
assay.procedure: protein-binding microarray (PBM); PBM: ~300 nM protein, 6 mM HEPES pH 7.8, 80 mM KCl, 0.5 mM EDTA, 0.5 mM EGTA, 6% glycerol, 35 ng/ul poly-dIdC, 1% milk, 1 h, room temperature; Ap Aiptasia and Nv Nematostella (sea anemones) / Co Capsaspora / Aq Amphimedon (sponge) / Dm Drosophila / Hu human; RHD is the Rel homology domain; high values mean tight binding
condition.info: dsDNA, one strand shown
Use z-score as the unit, but write only the number.

binding signal measured on "CCGATTAACATCAGGGATTCCCCTGATGTTAATCGGGTCTTGATTCGCTTGACGCTGCTG" = 11.2

binding signal measured on "CCGATTAACATCAGACAACCCCCTGATGTTAATCGGGTCTTGATTCGCTTGACGCTGCTG" = 5.15

binding signal measured on "CCGATTAACATCAGGGGGTTGCATGATGTTAATCGGGTCTTGATTCGCTTGACGCTGCTG" = 4.83

binding signal measured on "CCGATTAACATCACGCCCCCCCCTGATGTTAATCGGGTCTTGATTCGCTTGACGCTGCTG" = 4.72

binding signal measured on "CCGATTAACATCAAAAATACCCCTGATGTTAATCGGGTCTTGATTCGCTTGACGCTGCTG" = 7.71

binding signal measured on "CCGATTAACATCAGGGAGTTCCATGATGTTAATCGGGTCTTGATTCGCTTGACGCTGCTG" = 4.43

binding signal measured on "CCGATTAACATCAGGACTTTCCCTGATGTTAATCGGGTCTTGATTCGCTTGACGCTGCTG" = 7.98

binding signal measured on "CCGATTAACATCAAGAATCCCCCTGATGTTAATCGGGTCTTGATTCGCTTGACGCTGCTG" = 9.1

binding signal measured on "CCGATTAACATCAGGGGAGGGACTGATGTTAATCGGGTCTTGATTCGCTTGACGCTGCTG" = 3.83

binding signal measured on "CCGATTAACATCACGGGACTTCCTGATGTTAATCGGGTCTTGATTCGCTTGACGCTGCTG" = 7.87

binding signal measured on "CCGATTAACATCACAGATTTCCCTGATGTTAATCGGGTCTTGATTCGCTTGACGCTGCTG" = 2.66

binding signal measured on "CCGATTAACATCAGAATAACCCCTGATGTTAATCGGGTCTTGATTCGCTTGACGCTGCTG" = 3.29

binding signal measured on "CCGATTAACATCAAATGTCCCCCTGATGTTAATCGGGTCTTGATTCGCTTGACGCTGCTG" = 5.11

binding signal measured on "CCGATTAACATCAGAGGATTCCCTGATGTTAATCGGGTCTTGATTCGCTTGACGCTGCTG" = 7.61

binding signal measured on "CCGATTAACATCACTATTCCCCCTGATGTTAATCGGGTCTTGATTCGCTTGACGCTGCTG" = 3.2

binding signal measured on "CCGATTAACATCAGGGGGAAGTATGATGTTAATCGGGTCTTGATTCGCTTGACGCTGCTG" = 5.72

binding signal measured on "CCGATTAACATCAACAAAGTCCCTGATGTTAATCGGGTCTTGATTCGCTTGACGCTGCTG" = 5.26

binding signal measured on "CCGATTAACATCAGGGGGATTACTGATGTTAATCGGGTCTTGATTCGCTTGACGCTGCTG" = 9.03

binding signal measured on "CCGATTAACATCACAAAACTCCCTGATGTTAATCGGGTCTTGATTCGCTTGACGCTGCTG" = 5.41

binding signal measured on "CCGATTAACATCAGGGGGATCACTGATGTTAATCGGGTCTTGATTCGCTTGACGCTGCTG" = 9.4
